Data provenance is patent US20190177417A1.

Target: T1, Axl protein (human, UniProt P30530 26-451)
T1 construct: extracellular domain; also called human Axl; hAxl
T1 sequence (looked up): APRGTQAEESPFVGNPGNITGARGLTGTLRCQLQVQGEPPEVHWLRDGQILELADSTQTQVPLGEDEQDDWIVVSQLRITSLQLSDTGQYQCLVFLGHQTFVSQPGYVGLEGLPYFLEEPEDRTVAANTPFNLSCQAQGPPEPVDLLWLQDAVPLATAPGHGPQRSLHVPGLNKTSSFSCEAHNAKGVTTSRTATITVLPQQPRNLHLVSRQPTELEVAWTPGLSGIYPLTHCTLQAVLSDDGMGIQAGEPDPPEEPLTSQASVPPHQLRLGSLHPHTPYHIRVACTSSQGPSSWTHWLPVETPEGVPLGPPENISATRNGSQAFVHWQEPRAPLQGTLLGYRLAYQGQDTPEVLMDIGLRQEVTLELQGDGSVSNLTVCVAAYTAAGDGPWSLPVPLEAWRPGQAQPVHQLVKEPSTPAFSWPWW
Experiment: ELISA, 1:9 dilution, pH 6.0 over pH 7.4
Field: Affinity ELISA CPE mutant ratio (1:9, pH 6.0/7.4). Provide a value for each of the binders that follow.
Express the result in ratio but write the number alone.

// Affinity ELISA CPE mutant ratio (1:9, pH 6.0/7.4) lookup, binder = LC-H091Q (antibody, V domains shown) VH: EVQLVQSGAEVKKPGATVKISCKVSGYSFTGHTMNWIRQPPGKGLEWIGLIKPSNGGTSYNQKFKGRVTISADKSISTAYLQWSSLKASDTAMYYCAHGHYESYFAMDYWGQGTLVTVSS VL: DIQMTQSPSSLSASVGDRVTITCKASQDVSSAVAWYQQKPGQAPRLLIYWASTRHTGVPSRFSGSGSGTEFTLTISSLQPDDFATYYCQEQFSTPLTFGQGTKVEIK , result: 2.01

// Affinity ELISA CPE mutant ratio (1:9, pH 6.0/7.4) lookup, binder = LC-P095K (antibody, V domains shown) VH: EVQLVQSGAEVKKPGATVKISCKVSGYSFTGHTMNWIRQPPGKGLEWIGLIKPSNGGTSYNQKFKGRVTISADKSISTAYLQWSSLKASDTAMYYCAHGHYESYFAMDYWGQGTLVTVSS VL: DIQMTQSPSSLSASVGDRVTITCKASQDVSSAVAWYQQKPGQAPRLLIYWASTRHTGVPSRFSGSGSGTEFTLTISSLQPDDFATYYCQEHFSTKLTFGQGTKVEIK , result: 3.47

// Affinity ELISA CPE mutant ratio (1:9, pH 6.0/7.4) lookup, binder = LC-P095C (antibody, V domains shown) VH: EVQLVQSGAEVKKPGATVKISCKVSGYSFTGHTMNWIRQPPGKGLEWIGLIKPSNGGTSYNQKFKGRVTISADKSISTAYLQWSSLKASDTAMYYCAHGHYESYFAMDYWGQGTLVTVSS VL: DIQMTQSPSSLSASVGDRVTITCKASQDVSSAVAWYQQKPGQAPRLLIYWASTRHTGVPSRFSGSGSGTEFTLTISSLQPDDFATYYCQEHFSTCLTFGQGTKVEIK , result: 2.63
